# Subject Of Test: CaBem1-D1
# Test Summary: SPOT peptide array binding signal intensity (averaged, normalized) (arbitrary units (background-subtracted, floor 0; scale differs between SH3 domains)); higher = stronger binding of the SH3 domain to the peptide
Kindly state SPOT peptide array binding signal intensity for each of the entries shown.
Field format: numeric only.

Task item: Requested field: SPOT peptide array binding signal intensity. Item: QQNRPLPQLPNRNNR
Reply: 26.5

Task item: Next entry: GERSRPLVISILSSA
Reply: 28.5

Just for reference, the supplement of paper PMC4466140 is where these values come from.
